Test system: P12-Ichikawa
Experiment: cell viability relative to DMSO control; higher = less cytotoxic
Conditions: RPMI 5 mM glucose + 10% dialyzed FBS; 48 h; 46.1 µM
For each record, write down the corresponding cell viability.
Numbers only, in %.

Some entries whose results are on file:
Cc1ncc([N+](=O)[O-])n1CC(C)O (stereo unspecified) : 106
OCCn1cc(-c2cnc3nnn(Cc4ccc5ncccc5c4)c3n2)cn1 : 88.6
Cn1cc(C[C@@H](N)C(=O)O)c2ccccc21 : 91.9
C#CCN[C@@H]1CCc2ccccc21.CS(=O)(=O)O : 83.5
OC(CN1CCN(c2cccc(Cl)c2)CC1)C(c1ccccc1)c1ccccc1 (stereo unspecified) : 4.74

Let's switch to this compound now.
// fetch P12-Ichikawa cell viability for COc1cc(C(=O)NS(=O)(=O)c2ccccc2C)ccc1Cc1cn(C)c2ccc(NC(=O)OC3CCCC3)cc12
44.2

----------
Tested on: SEM cells
Assay: cell viability relative to DMSO control; higher = less cytotoxic
Conditions: HPLM + 10% dialyzed FBS; 48 h; 5.12 µM
experimental-endpoint: cell viability
Respond with the figure and its unit, in that order.

COC(=O)N1CC2(CC2)C[C@H](C(=O)NO)[C@H]1C(=O)N1CCN(c2ccccc2)CC1 : 19.8%
CCOC(=O)Nc1ccc(NCc2ccc(F)cc2)nc1N : 99.9%
CN(C)CCN1C(=O)c2cccc3cc(N)cc(c23)C1=O : 51%
CNC(=O)C1=CC=C(C)C(=C1)N2C(=C/C(=C(/Br)C2=O)OCC3=C(F)C=C(F)C=C3)\C : 125%
O=C(O)CCCc1c[nH]c2ccccc12 : 138%

// for each compound in input: emit cell viability
1. COC1=CC=C2CN(C)CC[C@@]34\C=C/[C@H](O)C[C@@H]3OC1=C24
2. COc1ccccc1N1CCN(CCN(C(=O)C2CCCCC2)c2ccccn2)CC1
3. O=C(OCC#CCSc1nnc(-c2cccc3ccccc23)o1)c1cc2ccccc2s1

1. 103%
2. 127%
3. 71.7%

Batch request: cell viability for each of the following compounds.
1. N#C/C(C(=O)c1ccc(Cl)cc1Cl)=C1/NC(=O)c2ccc(Cl)cc2N1
2. CC(C)(O)c1cc2nc(-c3cnc(N)nc3)nc(N3CCOCC3)c2s1

["110%", "44.5%"]

List cell viability for every entry below, keeping the order given.
1. NC/1=N/C(=O)N(/C=N1)[C@@H]2O[C@H](CO)[C@@H](O)[C@H]2O
2. CCN(c1ccccc1)c1cc(NC)[n+](C)c(C)n1

75.4%
104%

----------
Test system: NOMO1
Assay: AUC of viability dose-response curve (% viability x log10 dose units); higher = less sensitive
Details: RPMI 5 mM glucose + 10% FBS; 48 h
Please provide measured AUC of viability dose-response curve for the entries that follow.
One number for each entry.

CCOC1=CC=CC=C1N\2C(=O)C3=C(C=CC=C3)\N=C2C(C)N4CCN(CC4)C(=O)COC5=CC=C(Cl)C=C5 (centres undefined) : 330

Please report AUC of viability dose-response curve for every entry that follows.
1. CC(C)(C)[C@H](NC(=O)c1ccc(N)c(Cl)c1)C(=O)N1CCC[C@H]1C(=O)N[C@H](C#N)CC(=O)O
2. OC[C@H]1O[C@@H](Oc2cc(O)cc(/C=C/c3ccc(O)cc3)c2)[C@H](O)[C@@H](O)[C@@H]1O
3. C=C1C(=O)OC2/C=C(/C)CC/C=C(/C)CCC12 (centres undefined)

343
426
463

Source of measurements: the supplement of paper PMC11451515
